method_notes: chemical genetic growth profiling, strain panel (AID 1159580);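 also: tested at 20 µM; growth read once vehicle control cultures reached saturation at 30 °C; 1 = growth at the plate median or of vehicle wells; lower values mean less growth of the strain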
protocol_conditions: S. cerevisiae deletion strains, growth OD, locus YGL167C, strain pmr1
Hit rate of the full screen: of about 5,500 compounds, about 2,000 (36%) were called active. Not shown: some 18% with an inconclusive outcome. Rule as the data show it: active = normalized growth mostly below about 0.91 (no sharp cut-off); inconclusive = no clear call, values can overlap the other calls; inactive = mostly above about 0.92. The list shows a part of the results.
One label from this list, please: Y for active, N for inactive

The following compounds have reported results that may help.
[[record]]
compound = "O=c1c(O)c(-c2ccccc2)oc2cc(O)ccc12"
label_value = "Y"

[[record]]
compound = "Oc1cccc2cccnc12"
label_value = "Y"


Now, please, on to the next compound.
Test call, this compound: CO/N=C(/C(=O)NC1C(=O)N2C(C(=O)OCOC(=O)C(C)(C)C)=C(/C=C\c3scnc3C)CSC12)c1csc(N)n1 (stereo not drawn)
N

* * *

method_notes: chemical genetic growth profiling, strain panel (AID 1159580);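 also: tested at 20 µM; growth read once vehicle control cultures reached saturation at 30 °C; 1 = growth at the plate median or of vehicle wells; lower values mean less growth of the strain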
protocol_conditions: S. cerevisiae deletion strains, growth OD, locus YJL095W, strain BCK1
Hit rate of the full screen: of about 5,500 compounds, about 2,000 (36%) were called active. Another 18% or so got no clear call; they are omitted. Rule as the data show it: active = normalized growth mostly below about 0.91 (no sharp cut-off); inconclusive = no clear call, values can overlap the other calls; inactive = mostly above about 0.92. The list shows a part of the results.
One label from this list, please: 1.0 = active, 0.0 = inactive

[[record]]
molecule = "O=C(/C=C/c1ccccc1)c1ccc(O)cc1O"
label_value = 1.0


Test call, this molecule: O=C1C=CC(=O)c2c(O)c(Cl)c(Cl)c(O)c21
1.0

Test call, this molecule: CNC(=O)Oc1ccccc1OC(C)C
0.0

Test call, this molecule: S=C(NCCc1csc2ccccc12)Nc1ccc(Cl)cc1
0.0

Test call, this molecule: COC(=O)c1sccc1S(=O)(=O)Nc1cc(C(F)(F)F)cc(C(F)(F)F)c1
0.0

Test call, this molecule: Cc1ccc(O)c(C(CCN(C(C)C)C(C)C)c2ccccc2)c1 (centres undefined)
0.0

Test call, this molecule: COc1cc(C2SCCS2)cc(Br)c1OC(=O)NC(=O)c1c(Cl)cccc1Cl
0.0

Test call, this molecule: O=C(NCc1ccc2c(c1)OCO2)c1cc2ccccc2s1
1.0

* * *

method_notes: chemical genetic growth profiling, strain panel (AID 1159580);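 also: tested at 20 µM; growth read once vehicle control cultures reached saturation at 30 °C; 1 = growth at the plate median or of vehicle wells; lower values mean less growth of the strain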
protocol_conditions: S. cerevisiae deletion strains, growth OD, locus YML070W, strain DAK1, stronger effect = lower value
Out of some 5,500 compounds screened, about 2,000 (36%) were called active. Roughly 18% stayed inconclusive and do not appear here. Some of the results follow.
observed_property: normalized growth
Please state the value as a number alone, without comment.

The following compounds have reported results that may help.
[[record]]
compound = "COc1cc(C2CC(=S)Nc3ccccc3S2)cc(OC)c1OC (stereo unspecified)"
observed_property = "normalized growth"
endpoint_result = 0.914

[[record]]
compound = "O=C(Nc1ccccc1Sc1ccc(C(F)(F)F)cc1[N+](=O)[O-])C(Cl)Cl"
observed_property = "normalized growth"
endpoint_result = 0.938

[[record]]
compound = "O=C(OCCNc1ccc([N+](=O)[O-])cn1)c1ccc([N+](=O)[O-])o1"
observed_property = "normalized growth"
endpoint_result = 0.609

[[record]]
compound = "O=C(NCc1ccc2c(c1)OCO2)c1cc2ccccc2s1"
observed_property = "normalized growth"
endpoint_result = 0.54

[[record]]
compound = "O=C(Nc1cc(Cl)cc(Cl)c1)c1cc(Cl)ccc1O"
observed_property = "normalized growth"
endpoint_result = 0.805


Record summary for O=[N+]([O-])c1ccc(NCc2ccc(Cl)c(Cl)c2)nc1 : reported normalized growth = 0.854
